study-target: USP8 Rhod domain (Homo sapiens, UniProt P40818)
Construct: USP8 Rhod (174–317) (UniProt: P40818); GST (cleaved yes); made in house; host or cells: Escherichia coli BL21-Gold (DE3)
Sequence (P40818 174-317): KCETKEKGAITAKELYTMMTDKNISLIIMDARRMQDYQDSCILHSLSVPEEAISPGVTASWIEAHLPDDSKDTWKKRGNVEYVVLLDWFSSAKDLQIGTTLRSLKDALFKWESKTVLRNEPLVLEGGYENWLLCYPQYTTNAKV
test-method-notes: Peptide-phage display-based deep mutational scanning (DMS), USP8 Rhod domain
Format: binding
details: ProP-PD pairs, bait USP8_Rhodanese__P40818_174_317; wild-type/mutant pair, wild type KIAA1614 569-584 GMERVLGGLSSPLRLL (wt_00013)
Experimental: Four rounds of phage selections were carried out using the second generation human disorderome library or the constructed deep mutational scanning library. At least three individual replicates were used for each bait protein. […] The samples were prepared for NGS as previously described. […] The dsDNA was quantified using QuantiT PicoGreen dsDNA Assay Kit (Thermo Fisher) and sent for NGS (Illumina MiSeq v3, 1 × 150 bp read setup, 20% PhiX, NGI SciLifeLab facility, Sweden). […]
endpoint-label: hit_pair_ratio

# construct-sequence, study-target, endpoint-label, value-measured
rows = [
    ("GMERVIGGLSSPLRLL", "USP8 Rhod domain (Homo sapiens, UniProt P40818)", "hit_pair_ratio", -3.21),
    ("GMERVLEGLSSPLRLL", "USP8 Rhod domain (Homo sapiens, UniProt P40818)", "hit_pair_ratio", -2.19),
    ("GMERVLSGLSSPLRLL", "USP8 Rhod domain (Homo sapiens, UniProt P40818)", "hit_pair_ratio", 2.55),
    ("GYERVLGGLSSPLRLL", "USP8 Rhod domain (Homo sapiens, UniProt P40818)", "hit_pair_ratio", 1.08),
    ("GMERYLGGLSSPLRLL", "USP8 Rhod domain (Homo sapiens, UniProt P40818)", "hit_pair_ratio", -2.09),
    ("GMERQLGGLSSPLRLL", "USP8 Rhod domain (Homo sapiens, UniProt P40818)", "hit_pair_ratio", -6.89),
    ("GMERILGGLSSPLRLL", "USP8 Rhod domain (Homo sapiens, UniProt P40818)", "hit_pair_ratio", 20.85),
    ("GMERVLGTLSSPLRLL", "USP8 Rhod domain (Homo sapiens, UniProt P40818)", "hit_pair_ratio", 321.97),
    ("GLERVLGGLSSPLRLL", "USP8 Rhod domain (Homo sapiens, UniProt P40818)", "hit_pair_ratio", 1.84),
    ("GMERVLHGLSSPLRLL", "USP8 Rhod domain (Homo sapiens, UniProt P40818)", "hit_pair_ratio", 6.31),
    ("GMERPLGGLSSPLRLL", "USP8 Rhod domain (Homo sapiens, UniProt P40818)", "hit_pair_ratio", 1.07),
    ("GMERVPGGLSSPLRLL", "USP8 Rhod domain (Homo sapiens, UniProt P40818)", "hit_pair_ratio", 12.38),
    ("GQERVLGGLSSPLRLL", "USP8 Rhod domain (Homo sapiens, UniProt P40818)", "hit_pair_ratio", -1.16),
    ("LMERVLGGLSSPLRLL", "USP8 Rhod domain (Homo sapiens, UniProt P40818)", "hit_pair_ratio", 64.39),
    ("GMERVLPGLSSPLRLL", "USP8 Rhod domain (Homo sapiens, UniProt P40818)", "hit_pair_ratio", 131.67),
]

---

Test system: USP8 MIT domain
test-method-notes: Peptide-phage display-based deep mutational scanning (DMS), USP8 MIT domain
Type: binding, human
details: sheet S3.B_ProP-PD_pairs; bait USP8_MIT__P40818_1_142; ratio within the wild-type/mutant pair, larger over smaller averaged fraction (direction from fraction_wt and fraction_mut)
endpoint-label: hit_pair_ratio

# construct-sequence, study-target, value-measured
measured = [
    ("SEISDIESRIAALRAA", "USP8 MIT domain", 2.51),
    ("MDDDYEAYHVLFLSLL", "USP8 MIT domain", 37.55),
    ("SYVSDIESRIAALRAA", "USP8 MIT domain", 1.00),
    ("SESSDIESRIAALRAA", "USP8 MIT domain", 3.89),
    ("MDDDYEAYHYLFLSLL", "USP8 MIT domain", 1.94),
]

---

study-target: USP8 Rhod domain (Homo sapiens)
Construct: USP8 Rhod (174–317) (UniProt: P40818); GST (cleaved yes); made in house; host or cells: Escherichia coli BL21-Gold (DE3)
test-method-notes: Peptide-phage display-based deep mutational scanning (DMS), USP8 Rhod domain
Format: binding
details: ProP-PD pairs, bait USP8_Rhodanese__P40818_174_317; wild-type/mutant pair, wild type KIAA1614 569-584 GMERVLGGLSSPLRLL (wt_00013)
So basically: hit_pair_ratio at 2 or higher? That is YES. Lower than 2? That is NO.

# construct-sequence, study-target, assigned-class
rows = [
    ("GMERVLGGQSSPLRLL", "USP8 Rhod domain (Homo sapiens)", "NO"),
    ("GMERDLGGLSSPLRLL", "USP8 Rhod domain (Homo sapiens)", "NO"),
    ("GMETVLGGLSSPLRLL", "USP8 Rhod domain (Homo sapiens)", "YES"),
    ("GMWRVLGGLSSPLRLL", "USP8 Rhod domain (Homo sapiens)", "YES"),
    ("GMERVLGGVSSPLRLL", "USP8 Rhod domain (Homo sapiens)", "NO"),
    ("EMERVLGGLSSPLRLL", "USP8 Rhod domain (Homo sapiens)", "YES"),
    ("GMERKLGGLSSPLRLL", "USP8 Rhod domain (Homo sapiens)", "YES"),
    ("NMERVLGGLSSPLRLL", "USP8 Rhod domain (Homo sapiens)", "NO"),
    ("GMERVVGGLSSPLRLL", "USP8 Rhod domain (Homo sapiens)", "YES"),
    ("GMERVLWGLSSPLRLL", "USP8 Rhod domain (Homo sapiens)", "YES"),
    ("GTERVLGGLSSPLRLL", "USP8 Rhod domain (Homo sapiens)", "NO"),
    ("GMERVLAGLSSPLRLL", "USP8 Rhod domain (Homo sapiens)", "NO"),
    ("GKERVLGGLSSPLRLL", "USP8 Rhod domain (Homo sapiens)", "NO"),
    ("DMERVLGGLSSPLRLL", "USP8 Rhod domain (Homo sapiens)", "NO"),
    ("GMERVLGGDSSPLRLL", "USP8 Rhod domain (Homo sapiens)", "NO"),
    ("GMERVLIGLSSPLRLL", "USP8 Rhod domain (Homo sapiens)", "YES"),
    ("GMERHLGGLSSPLRLL", "USP8 Rhod domain (Homo sapiens)", "NO"),
    ("GPERVLGGLSSPLRLL", "USP8 Rhod domain (Homo sapiens)", "NO"),
    ("RMERVLGGLSSPLRLL", "USP8 Rhod domain (Homo sapiens)", "YES"),
    ("GMERRLGGLSSPLRLL", "USP8 Rhod domain (Homo sapiens)", "YES"),
    ("GMERVLYGLSSPLRLL", "USP8 Rhod domain (Homo sapiens)", "YES"),
    ("GMERVLGGPSSPLRLL", "USP8 Rhod domain (Homo sapiens)", "YES"),
]
